- Test system: HIV-1LAI
- test-details: EASY-HIT assay: infectious virus production by LC5-RIC reporter cells exposed to HIV-1LAI
- Format: cell-based
- condition-details: LC5-RIC cells exposed to HIV-1LAI; infectious virus production; mean ± SD; listed as #7; read-out: IC50, half maximal inhibitory concentration

{"molecule": "COc1oc(C2C/C(=C/C(C)=C/c3ccc(C(F)(F)F)cc3)CO2)c(C)c(=O)c1C (stereo not shown) [compound #7]", "IC50": "< 10 nM"}

---

- Tested on: HIV-1LAI
- test-details: Inhibition of HIV infection of human PBMCs (infectious virus production, read out on LC5-RIC cells)
- Assay type: cell-based
- condition-details: Human immunodeficiency virus 1, PBMC; human PBMCs exposed to HIV-1LAI; mean ± SD; read-out: IC50, half maximal HIV-inhibitory concentration
pIC50: −log10 of the molar value.

{"compound": "COc1oc(C2C/C(=C/C(C)=C/c3ccc(C(F)(F)F)cc3)CO2)c(C)c(=O)c1C (stereo not shown)", "pIC50": 7.99}
